test system: LOX IMVI melanoma; assay: NCI tumour cell line growth inhibition, 48 h
Short version: TGI at least 20 µM is Met, less is Not met.

Tell me whether TGI is at least 20 µM here: CCCCCCCCCCCCCCCCOP(=O)(O)Oc1ccc(/C=C\c2ccc(OP(=O)(O)OCCCCCCCCCCCCCCCC)cc2)cc1
Met

Continue with the compound presented below.
Tell me whether TGI is at least 20 µM here: CCCN(CCCCC(NC(C)=O)C(=O)NCc1ccccc1)C(=O)N(CCCl)N=O (stereo not given)
Met

###

test system: MDA-MB-435; experiment: NCI tumour cell line growth inhibition, 48 h
measured_endpoint: TGI

As a guide, the following entries are already answered.
Endpoint output: TGI of O=c1[nH]c(=O)n(C2CC(O)C(CS)O2)cc1F (stereo unspecified) . Value?
> 100 µM

Please give the result for CC(=O)OC[C@H]1[C@@H]2C(CC[C@]13CO3)OC(=O)CC(C)[C@]2(C)CCc1ccoc1 (stereo partly specified) too.
> 100 µM

Please give the result for NCCc1nc(-c2nc(C(=O)O)cs2)cs1 too.
> 100 µM

Please give the result for CN(C)C(=S)SN(C)C(=O)Nc1ccccc1 too.
> 72.5 µM

Please give the result for CCCCn1c(C)c(C(=O)OCC)c2cc(OCc3ccc(C(=O)Nn4c(C)ccc4C)cc3)c(Br)cc21 too.
> 100 µM

Here is the next item to consider.
Endpoint output: TGI of CC(C(=O)N1c2ccccc2Sc2ccccc21)N1c2ccccc2Sc2ccccc21 (stereo unspecified) . Value?
> 100 µM

###

The entries below come with measured TGI values attached.
tested on: HCC-2998 colon; assay: NCI tumour cell line growth inhibition, 48 h

As a guide, the following entries are already answered.
Notebook: pull reported TGI for HCC-2998 colon, entry COc1ccccc1N1C(=O)/C(=C\c2cccc(Oc3ccccc3)c2)SC1c1ccccc1 (centres undefined)
> 100 µM

Please give the result for COC(=O)c1cc2c(c(C(=O)OC)c1O)C(=O)C=CC2=O too.
> 57.4 µM

Please give the result for O=C(CCCSc1nc(-c2ccc(Cl)cc2)cc(-c2ccc(Cl)cc2)n1)NO too.
10.3 µM

Here is the next item to consider.
Notebook: pull reported TGI for HCC-2998 colon, entry O=C1NC(Nc2cccc(Cl)c2)=N/C1=C\c1ccc(Cl)c(Cl)c1
5.27 µM

###

tested on: SK-MEL-28 melanoma; assay: NCI tumour cell line growth inhibition, 48 h
The entries below come with measured TGI values attached.

As a guide, the following entries are already answered.
Endpoint output: TGI of CCOC(=O)/C(O)=C(/C=NC(=S)c1ccncc1)C(=O)OCC . Value?
> 100 µM

Please give the result for Nc1nc(Cl)cc(NCC2(CO)CC(OCc3ccccc3)C2)n1 (configuration not stated) too.
> 100 µM

Please give the result for COc1cc(C2c3cc4c(cc3[C@@H](Nc3ccccc3)C3CO[C@@H](OC)[C@H]23)OCO4)cc(OC)c1O (some centres not stated) too.
> 25 µM

Please give the result for O=C1C(Br)=CC2(C=C1Br)CCN=c1c(O)c3c(c(O)c12)=NC=N3 too.
29.9 µM

Please give the result for Cc1ccc(NC(=O)C2C(=O)N(c3ccc(C)c(C)c3)C(=O)/C2=N/O)cc1C (configuration not stated) too.
> 100 µM

Others:
Endpoint output: TGI of COc1cc(C2c3cc4c(cc3[C@H](OCCN(C)C)[C@@H]3COC(=O)C23)OCO4)cc(OC)c1O (some centres not stated) . Value?
4.51 µM

Please give the result for COc1cc(Cc2cc(OC)c(OC)c(OC)c2)ccc1O too.
> 100 µM

Please give the result for Cc1nc(N)c(N2CCNCC2)c(=O)[nH]1 too.
> 100 µM

Please give the result for O=C(CNc1ccc(Cl)cc1)Nn1c(-c2ccccc2)nc2ccccc2c1=O too.
19.8 µM

Please give the result for Cc1[nH]c(=O)[nH]c(=S)c1C(=O)NC(C)(CO)CO too.
> 100 µM

Please give the result for CC(C)=CC(=O)N1CCN(C(=O)C=C(C)C)CC1 too.
> 100 µM
